B1: TOR1AIP2 (parent)
chain: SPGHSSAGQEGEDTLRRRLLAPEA

# Variants of: B1
# Experiment Notes: protein stability index of a GFP-peptide fusion (GPS, HEK-293T) (PSI 1-6); higher = more stable;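 further: lentivirally expressed fusions sorted by FACS into six bins by GFP to DsRed ratio, PSI derived from sequencing read proportions per bin multiplied by bin number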
# Condition Summary: c terminus: a fixed tail appended
Threshold rule: protein stability index greater than or equal to 5 is Yes; below that, No.

Illustrative cases are given below, each with its answer.
[
  {
    "Mutant Label": "E12P",
    "Class Name": "No"
  },
  {
    "Mutant Label": "G8V",
    "Class Name": "No"
  },
  {
    "Mutant Label": "L20A",
    "Class Name": "Yes"
  },
  {
    "Mutant Label": "R18I",
    "Class Name": "No"
  },
  {
    "Mutant Label": "S6G",
    "Class Name": "No"
  },
  {
    "Mutant Label": "D13L",
    "Class Name": "No"
  },
  {
    "Mutant Label": "A24M",
    "Class Name": "No"
  },
  {
    "Mutant Label": "R17Q",
    "Class Name": "No"
  },
  {
    "Mutant Label": "S1F",
    "Class Name": "No"
  },
  {
    "Mutant Label": "A21E",
    "Class Name": "Yes"
  }
]

Request: Hi team, for G3V , is the recorded protein stability index at or above 5?
Result: No

Request: Determine whether measured protein stability index meets or exceeds 5 for G11E
Result: No
